Target: T1, human-CD40 monomer (human, UniProt P25942 21-193, limits assumed)
T1 construct: also called hCD40-monomer; human-CD40-monomer protein
T1 sequence (P25942 21-193 limits assumed): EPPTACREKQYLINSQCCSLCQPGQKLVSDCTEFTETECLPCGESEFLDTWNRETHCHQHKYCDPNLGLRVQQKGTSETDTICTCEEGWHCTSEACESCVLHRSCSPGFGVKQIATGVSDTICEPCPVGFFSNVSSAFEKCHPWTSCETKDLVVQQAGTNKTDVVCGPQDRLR
Measurement Description: SPR 2 pt screen, Ab on protein A
Readout Name: kon

[[record]]
binder = "humanized Y1238 hz26 (hz-HC6 / hz-LC1), IgG1.3f (antibody, V domains shown, IgG1.3f heavy constant, common CL; expression supernatant; also called Sup 26) VH: QVQLVQSGAEVKKPGASVKVSCKASGYAFTNYLIEWVRQRPGQGLEWMGVINPGSGGTNYNEKFKGRVTLTADKSISTAYMELSRLRSDDTAVYYCARSQLGRRFDYWGQGTLVTVSS VL: DIQMTQSPSSLSASVGDRVTITCKASQDVRTGVAWYQQKPGKAPKLLIYSASYRNTGVPSRFSGSGSGTDFTFTISSLQPEDIATYYCQQHYSPPYTFGGGTKVEIK"
result = "41000 M⁻¹ s⁻¹"

[[record]]
binder = "humanized Y1238 hz7 (hz-HC2 / hz-LC2), IgG1.3f (antibody, V domains shown, IgG1.3f heavy constant, common CL; expression supernatant; also called Sup 7) VH: QVQLVQSGAEVKKPGASVKVSCKASGYAFTNYLIEWVRQAPGQGLEWMGVINPGSGGTNYNEKFKGRVTMTADTSISTAYMELSRLRSDDTAVYYCARSQLGRRFDYWGQGTLVTVSS VL: DIQMTQSPSSLSASVGDRVTITCKASQDVRTGVAWYQQKPGKAPKLLIYSASYRNTGVPSRFSGSRSGTDFTFTISSLQPEDIATYYCQQHYSPPYTFGGGTKVEIK"
result = "43000 M⁻¹ s⁻¹"

